Target: SALL4 ZFC4 R900W (HT-SELEX) (Mus musculus, UniProt Q8BX22 870-940, R900W)
Sequence: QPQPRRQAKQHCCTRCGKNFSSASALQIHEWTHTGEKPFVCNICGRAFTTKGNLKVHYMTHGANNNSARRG
Experiment: HT-SELEX; high values mean tight binding
Conditions: protein: recombinant; vector His6-GST; dsDNA, one strand shown
Kindly supply the reported binding signal values for the records listed here.
# output: bare number, implied unit fold-change vs cycle 0

QUERY: Find binding signal for ACTGTC on SALL4 ZFC4 R900W (HT-SELEX) (Mus musculus, UniProt Q8BX22 870-940, R900W) and write it down.
RESULT: 0.857

QUERY: Name the recorded binding signal of AAAGGA , assay system SALL4 ZFC4 R900W (HT-SELEX) (Mus musculus, UniProt Q8BX22 870-940, R900W).
RESULT: 1.57

QUERY: Param request: binding signal | system SALL4 ZFC4 R900W (HT-SELEX) (Mus musculus, UniProt Q8BX22 870-940, R900W) | item AGTTAC
RESULT: 1.56

QUERY: Please report the measured binding signal for GCGGAA tested on SALL4 ZFC4 R900W (HT-SELEX) (Mus musculus, UniProt Q8BX22 870-940, R900W).
RESULT: 0.245

QUERY: Param request: binding signal | system SALL4 ZFC4 R900W (HT-SELEX) (Mus musculus, UniProt Q8BX22 870-940, R900W) | item ACGCAG
RESULT: 0.305

QUERY: Lab note: SALL4 ZFC4 R900W (HT-SELEX) (Mus musculus, UniProt Q8BX22 870-940, R900W) assay, enter binding signal for AACAAC here
RESULT: 1.26

QUERY: Enter binding signal (test system SALL4 ZFC4 R900W (HT-SELEX) (Mus musculus, UniProt Q8BX22 870-940, R900W)) for GCGATA
RESULT: 0.534

QUERY: Return reported binding signal for target or system SALL4 ZFC4 R900W (HT-SELEX) (Mus musculus, UniProt Q8BX22 870-940, R900W), item CAGTTC .
RESULT: 0.912

QUERY: Retrieve binding signal on SALL4 ZFC4 R900W (HT-SELEX) (Mus musculus, UniProt Q8BX22 870-940, R900W); query CATAAG
RESULT: 1.59

QUERY: Supply binding signal measured with SALL4 ZFC4 R900W (HT-SELEX) (Mus musculus, UniProt Q8BX22 870-940, R900W) for ACGTCA .
RESULT: 0.776

QUERY: Name the value of binding signal reported for AAAACA when tested on SALL4 ZFC4 R900W (HT-SELEX) (Mus musculus, UniProt Q8BX22 870-940, R900W).
RESULT: 1.67

QUERY: Write down measured binding signal (SALL4 ZFC4 R900W (HT-SELEX) (Mus musculus, UniProt Q8BX22 870-940, R900W)) for this sequence. CGCCGA
RESULT: 0.0711
